Items are presented alongside their recorded Percent Effect.
- Test system: Wolbachia pipientis
- PROCEDURE_DETAILS: Anti-Wolbachia Cell-Based Screen
- Assay type: functional
- Design: scale not given: in the data most compounds retested in dose-response had high values
- MEASUREMENT_CONDITIONS: 5 µM
The whole screen tested about 48,000 compounds, of which about 13,000 (27%) showed an effect of 50% or more. This is one part of the list.
Quick reminder: number only, in %, skip the unit.

Take a look at these entries with their results.
CNC(=O)Cc1ccc(-n2ccnc2-c2cccc(C(=O)O)c2)cc1: -25.18
Cc1cc(C)n(CC2CCCN2C(=O)c2nccc3ccccc23)n1 (stereo not drawn): 117.1

Proceeding to the next molecule to report its Percent Effect.
Query block: Returns the measured Percent Effect for the input molecule. Input: Cc1ccccc1CNc1ccc(S(N)(=O)=O)c(C(F)(F)F)c1
Result block: -19.7

====

- System: Wolbachia pipientis
- PROCEDURE_DETAILS: Anti-Wolbachia Cell-Based Screen
- Assay type: functional
- Parameters: scale not given: in the data most compounds retested in dose-response had high values
- MEASUREMENT_CONDITIONS: 5 µM
About 13,000 (27%) of roughly 48,000 compounds showed an effect of 50% or more. Some of the results follow.
Items are presented alongside their recorded Percent Effect.
Quick reminder: number only, in %, skip the unit.

Take a look at these entries with their results.
OCC1CCCCN1CCCNCc1cc(O)c2cc(F)ccc2n1 (stereo not drawn): 13.42
CCOCc1cccc(NC(=O)C2COCCO2)c1 (stereo not drawn): 8.112

Proceeding to the next compound to report its Percent Effect.
Query block: Returns the measured Percent Effect for the input compound. Input: CC(C)N1CCCCC1CCn1cnc2cc(C(F)(F)F)ccc2c1=O (stereo not drawn)
Result block: 86.9

====

- System: Wolbachia pipientis
- PROCEDURE_DETAILS: Anti-Wolbachia Cell-Based Screen
- Format: functional
- Design: scale not given: in the data most compounds retested in dose-response had high values
- MEASUREMENT_CONDITIONS: 5 µM
In all, about 48,000 compounds went through this assay and about 13,000 (27%) showed an effect of 50% or more. Some of the results follow.
QUANTITY_KIND: Percent Effect (%)
Quick reminder: number only, in %, skip the unit.

Take a look at these entries with their results.
Cc1nc(-c2ccsc2)ccc1C(=O)N1CCn2c(C)nnc2C1: -2.134
CSC1(CNC(=O)NC(C)c2ccc(F)c(F)c2)CCOCC1 (stereo unspecified): -14.87
CC(C)c1nnc2n1CCN(Cc1csc(CC(=O)N(C)C)n1)C2: -25.19
Cn1ccc(CN2CCCC(CNS(C)(=O)=O)C2)cc1=O (stereo unspecified): 2.475

Query block: Returns the measured Percent Effect for the input compound. Input: CN(Cc1cc2n(n1)CCN(C(=O)c1cccnc1)C2)Cc1nccs1
Result block: 89.98

Query block: Returns the measured Percent Effect for the input compound. Input: CCS(=O)(=O)N1Cc2c(Cn3cccc3)nn(C(C)C)c2C1
Result block: 3.857

Query block: Returns the measured Percent Effect for the input compound. Input: CCc1nnc2n1CCN(Cc1csc(Cc3ccccc3)n1)C2
Result block: 110.3

Query block: Returns the measured Percent Effect for the input compound. Input: COc1ccc(OCCN2CCOCS2(=O)=O)cc1
Result block: -3.078

Query block: Returns the measured Percent Effect for the input compound. Input: OCc1ccc(CNc2ccccc2CN2CCC(O)CC2)o1
Result block: -5.459

Query block: Returns the measured Percent Effect for the input compound. Input: CC(C)c1nnc2n1CCN(Cc1csc(-c3cnn(C)c3)n1)C2
Result block: -7.082

Query block: Returns the measured Percent Effect for the input compound. Input: Cc1cc(CS(=O)(=O)NC2CCCc3ccccc32)on1 (stereo unspecified)
Result block: -2.074

Query block: Returns the measured Percent Effect for the input compound. Input: O=C([C@@H]1CCCO1)N1CCn2c(Cn3cccn3)cnc2C1
Result block: 2.282

Query block: Returns the measured Percent Effect for the input compound. Input: O=C(C[S+]([O-])Cc1ccc(F)cc1Cl)N1CCc2sccc2C1 (stereo unspecified)
Result block: -9.716

Query block: Returns the measured Percent Effect for the input compound. Input: Cc1nnc(CN(C)C2CCN(Cc3nnc(C4CCC4)o3)C2)n1C (stereo unspecified)
Result block: 92.95

====

- Tested on: Wolbachia pipientis
- PROCEDURE_DETAILS: Anti-Wolbachia Cell-Based Screen
- Format: functional
- Set-up: scale not given: in the data most compounds retested in dose-response had high values
- MEASUREMENT_CONDITIONS: 5 µM
The campaign covered roughly 48,000 compounds. About 13,000 (27%) showed an effect of 50% or more. This is one part of the list.
QUANTITY_KIND: Percent Effect
A complete answer gives the number followed by the unit.

Take a look at these entries with their results.
CCc1ncc(C(=O)N2CCN(C(=O)COc3ccccc3)CC2)cn1: 3.835%
O=C(CNc1cc2c(cc1Cl)OCCO2)NCC(F)(F)F: 19.2%
CC(C)(C)n1ccc(C(=O)N2CCCC(c3ncc[nH]3)C2)c1 (stereo not given): -9.494%
COc1ccc(-n2ccc(C(=O)NCCN3CCC(C)CC3)n2)cc1: 99.65%
Cn1cc(C(=O)N2CCC(c3ncc[nH]3)CC2)cn1: 106%
CCC(NCc1ccccc1)c1ccccc1OCC(=O)NC (stereo not given): -0.2413%
CC(=O)c1ccc(OCC(=O)NS(=O)(=O)c2ccc(Cl)s2)cc1: 1.494%
Cc1ccc(CN2C[C@@H]3C[C@H](C(=O)NCC4CC4)N(C)[C@@H]3C2)o1.O=C(O)C(F)(F)F.O=C(O)C(F)(F)F: 102.8%

Proceeding to the next compound to report its Percent Effect.
Query block: Returns the measured Percent Effect for the input compound. Input: CN(C)CCNc1ccc(-c2nc(-c3ccccc3F)no2)cn1
Result block: -20.15%

====

- Tested on: Wolbachia pipientis
- PROCEDURE_DETAILS: Anti-Wolbachia Cell-Based Screen
- Assay type: functional
- Set-up: scale not given: in the data most compounds retested in dose-response had high values
- MEASUREMENT_CONDITIONS: 5 µM
Among all 48,000 compounds or so, about 13,000 (27%) showed an effect of 50% or more. The list shows a part of the results.
QUANTITY_KIND: Percent Effect (%)
Quick reminder: number only, in %, skip the unit.

Take a look at these entries with their results.
COC[C@H]1CC[C@H]2[C@H](CCN2C(=O)c2ccncc2F)O1: 114.1
CCOC[C@H]1CC[C@H]2[C@H](CCN2S(=O)(=O)Cc2ccccc2)O1: -6.562
O=C1CO[C@H]2CN(C3CCOCC3)C[C@H]2N1Cc1ccc(F)cc1: 15.12
COc1ccc(C(C)N2CCC(C(=O)NC3CC3)CC2)cc1Cl (stereo not given): 5.354

Proceeding to the next compound to report its Percent Effect.
Query block: Returns the measured Percent Effect for the input compound. Input: O=C(NCc1ccccc1)NCC(O)c1cccc(F)c1 (stereo not given)
Result block: 95.34

====

Items are presented alongside their recorded Percent Effect.
- Tested on: Wolbachia pipientis
- PROCEDURE_DETAILS: Anti-Wolbachia Cell-Based Screen
- Assay type: functional
- Set-up: scale not given: in the data most compounds retested in dose-response had high values
- MEASUREMENT_CONDITIONS: 5 µM
Out of some 48,000 compounds screened, about 13,000 (27%) showed an effect of 50% or more. Some of the results follow.
Quick reminder: number only, in %, skip the unit.

Cc1ccc(-c2cc(C(=O)N3CCCC3c3cccnc3)[nH]n2)o1 (stereo unspecified): -6.11
N#Cc1c(F)cccc1N1CCN(S(=O)(=O)c2cccs2)CC1: -7.537
Cc1ccc(-c2cc(C(=O)NCCCc3csc(N)n3)[nH]n2)o1: 17.13
Cc1ccc(-c2nc(CC(=O)NCC(C)N3CCOCC3)cs2)o1 (stereo unspecified): -1.179
COCCNC(=O)C(C)n1nc(-c2ccc(C)o2)cc(N)c1=O (stereo unspecified): 104.7

Query block: Returns the measured Percent Effect for the input compound. Input: O=C(CCCn1nnc(-c2ccc(F)cc2)n1)N1CCOCC(CO)C1 (stereo unspecified)
Result block: -1.392

====

Items are presented alongside their recorded Percent Effect.
- System: Wolbachia pipientis
- PROCEDURE_DETAILS: Anti-Wolbachia Cell-Based Screen
- Assay type: functional
- Set-up: scale not given: in the data most compounds retested in dose-response had high values
- MEASUREMENT_CONDITIONS: 5 µM
Out of some 48,000 compounds screened, about 13,000 (27%) showed an effect of 50% or more. This is one part of the list.
Quick reminder: number only, in %, skip the unit.

Take a look at these entries with their results.
COC(=O)NCC(=O)N1CCCn2nc(CN3CC[C@H](F)C3)cc2C1: -5.697
CCN(Cc1noc(C2CC2)n1)Cc1ccc(C#N)cc1F: -1.413

Query block: Returns the measured Percent Effect for the input molecule. Input: CCCNC(=O)NCc1nc(C)c(C)o1
Result block: -5.382

Query block: Returns the measured Percent Effect for the input molecule. Input: O=C(NCc1ccccn1)NCc1ccc(Cl)s1
Result block: 100.6

Hello, the source for this data is ChEMBL document CHEMBL3988442, in case you need it.
